ASSAY REMARKS: Plasma protein binding of cysteamine
Format: in vitro ADME
ASSAY CONDITIONS: human plasma proteins, predominantly albumin
PROPERTY: fraction unbound

Entry NCCS [cysteamine] ; fraction unbound = ~0.48

Reference for the values: patent US9233077B2
